molecular target: T1, TSHR coated onto tubes (human, UniProt P16473 21-764, limits assumed); test: TSHR coated tubes, competitor 125I-TSH
T1 construct: whole entry named; also called TSHR coated tubes; thyrotropin receptor
Parameter: % inhib of 125I-TSH binding at 10 µg/mL (%)
Write it as a number; the unit % goes unstated.

Worked examples follow.
**Q:** Query (binder): 2B4 IgG (antibody, V domains shown) VH: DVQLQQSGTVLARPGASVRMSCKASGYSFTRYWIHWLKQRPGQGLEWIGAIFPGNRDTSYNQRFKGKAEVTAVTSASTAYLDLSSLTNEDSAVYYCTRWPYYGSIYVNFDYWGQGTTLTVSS VL: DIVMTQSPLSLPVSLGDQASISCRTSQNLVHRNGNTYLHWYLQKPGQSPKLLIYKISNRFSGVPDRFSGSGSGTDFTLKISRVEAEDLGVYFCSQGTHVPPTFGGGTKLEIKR ; field requested: % inhib of 125I-TSH binding at 10 µg/mL
**A:** 85

**Q:** What % inhib of 125I-TSH binding at 10 µg/mL value was documented for this binder, 9D33 IgG (antibody, V domains shown) VH: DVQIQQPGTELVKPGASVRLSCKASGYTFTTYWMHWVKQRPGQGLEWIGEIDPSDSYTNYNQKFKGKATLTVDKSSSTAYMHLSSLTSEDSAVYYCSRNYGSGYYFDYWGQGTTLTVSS VL: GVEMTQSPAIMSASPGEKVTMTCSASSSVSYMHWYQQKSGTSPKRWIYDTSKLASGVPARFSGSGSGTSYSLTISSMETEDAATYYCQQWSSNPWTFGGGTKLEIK ?
**A:** 65

New cases:
**Q:** # % inhib of 125I-TSH binding at 10 µg/mL lookup, item 16E5 IgG (antibody, V domains shown) VH: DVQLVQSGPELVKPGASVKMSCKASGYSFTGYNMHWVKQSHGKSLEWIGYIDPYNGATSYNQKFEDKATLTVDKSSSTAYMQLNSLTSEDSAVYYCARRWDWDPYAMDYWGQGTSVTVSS VL: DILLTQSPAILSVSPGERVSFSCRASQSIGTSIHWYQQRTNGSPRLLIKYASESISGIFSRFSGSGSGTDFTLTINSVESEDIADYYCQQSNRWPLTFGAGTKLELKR
**A:** 44
